- measured target: [^3 H] GBR12935 binding in rat strialal crude membrane (Rattus norvegicus)
- Construct: from tissue; host or cells: corpus striatum of Wistar male rat, crude membrane
- method summary: [^3 H] GBR12935 binding in rat striatal crude membrane
- Design: species or system rat (Wistar male)
- condition notes: 1 nM [^3 H] GBR12935, rat striatal crude membrane, 4° C., 80 minutes
pIC50: −log10 of the molar value.
Label 1.0 when pIC50 is at or above 8; anything below gets 0.0.

Use these answered entries as a reference point.
molecule	measured target	label class
Cc1ccc(NCC(O)CN2CCN(CCCC(c3ccc(F)cc3)c3ccc(F)cc3)CC2)cc1.Cl.Cl (stereo not drawn) [Compound 14, dihydrochloride]	[^3 H] GBR12935 binding in rat strialal crude membrane (Rattus norvegicus)	1.0
OC(CNc1ccccc1)CN1CCN(C(c2ccc(F)cc2)c2ccc(F)cc2)CC1 (stereo not drawn)	[^3 H] GBR12935 binding in rat strialal crude membrane (Rattus norvegicus)	0.0

input: Can COc1cc(NCC(O)CN2CCN(CCCC(c3ccc(F)cc3)c3ccc(F)cc3)CC2)cc(OC)c1OC.O=C(O)/C=C\C(=O)O.O=C(O)/C=C\C(=O)O (stereo not drawn) [Compound 11, dimaleate] be said to have pIC50 at or above 8?
output: 0.0

input: Lookup COc1ccc(NCC(O)CN2CCN(CCCC(c3ccc(F)cc3)c3ccc(F)cc3)CC2)cc1.Cl.Cl (stereo not drawn) [Compound 13, dihydrochloride]
output: 1.0

input: Lookup Cl.Cl.OC(CNc1ccc(Cl)cc1)CN1CCN(CCCC(c2ccc(F)cc2)c2ccc(F)cc2)CC1 (stereo not drawn) [Compound 10, dihydrochloride]
output: 1.0

input: Lookup CN(C)c1ccc(NCC(O)CN2CCN(CCCC(c3ccc(F)cc3)c3ccc(F)cc3)CC2)cc1 (stereo not drawn)
output: 0.0

input: Lookup Nc1ccc(NCC(O)CN2CCN(CCCC(c3ccc(F)cc3)c3ccc(F)cc3)CC2)cc1 (stereo not drawn)
output: 0.0

----------
- measured target: [^3 H] GBR12935 binding in rat strialal crude membrane (Rattus norvegicus)
- Construct: from tissue; host or cells: corpus striatum of Wistar male rat, crude membrane
- method summary: [^3 H] GBR12935 binding in rat striatal crude membrane
- Parameters: species or system rat (Wistar male)
- condition notes: 1 nM [^3 H] GBR12935, rat striatal crude membrane, 4° C., 80 minutes
For each record, write down the corresponding IC50.
One number for each entry, in nM.

compound	IC50 [nM]
OC(CNc1ccccc1)CN1CCN(CCCC(c2ccc(F)cc2)c2ccc(F)cc2)CC1 (single isomer, unassigned; (-)) [Compound 15]	2
O=C(O)/C=C\C(=O)O.O=C(O)/C=C\C(=O)O.O=C(O)/C=C\C(=O)O.OC(CNc1ccncc1)CN1CCN(CCCC(c2ccc(F)cc2)c2ccc(F)cc2)CC1 (stereo not drawn) [Compound 17, trimaleate]	34

Next item in the queue.
input: What value of measured IC50 is listed for Cl.Cl.OC(CNc1ccc(F)cc1)CN1CCN(CCCC(c2ccc(F)cc2)c2ccc(F)cc2)CC1 (stereo not drawn) [Compound 9, dihydrochloride] ?
output: 4

----------
- measured target: [^3 H] GBR12935 binding in rat strialal crude membrane (Rattus norvegicus)
- Construct: from tissue; host or cells: corpus striatum of Wistar male rat, crude membrane
- method summary: [^3 H] GBR12935 binding in rat striatal crude membrane
- Set-up: species or system rat (Wistar male)
- condition notes: 1 nM [^3 H] GBR12935, rat striatal crude membrane, 4° C., 80 minutes
pIC50: −log10 of the molar value.
Label class 1 when pIC50 is at or above 8; anything below gets class 0.

Use these answered entries as a reference point.
compound	label class
OC(CNc1ccccc1)CN1CCN(CC(c2ccccc2)c2ccccc2)CC1 (centres unmarked)	class 0
OC(CNc1ccccc1)CN1CCN(CCCC(c2ccc(F)cc2)c2ccc(F)cc2)CC1 (single isomer, unassigned; (+)) [Compound 16]	class 1

input: Can CC(C)(C)c1cc(NCC(O)CN2CCN(CCCC(c3ccc(F)cc3)c3ccc(F)cc3)CC2)cc(C(C)(C)C)c1O (centres unmarked) be said to have pIC50 at or above 8?
output: class 0

----------
- measured target: [^3 H] GBR12935 binding in rat strialal crude membrane (Rattus norvegicus, UniProt P23977)
- Construct: from tissue; host or cells: corpus striatum of Wistar male rat, crude membrane
- Sequence (P23977 whole entry): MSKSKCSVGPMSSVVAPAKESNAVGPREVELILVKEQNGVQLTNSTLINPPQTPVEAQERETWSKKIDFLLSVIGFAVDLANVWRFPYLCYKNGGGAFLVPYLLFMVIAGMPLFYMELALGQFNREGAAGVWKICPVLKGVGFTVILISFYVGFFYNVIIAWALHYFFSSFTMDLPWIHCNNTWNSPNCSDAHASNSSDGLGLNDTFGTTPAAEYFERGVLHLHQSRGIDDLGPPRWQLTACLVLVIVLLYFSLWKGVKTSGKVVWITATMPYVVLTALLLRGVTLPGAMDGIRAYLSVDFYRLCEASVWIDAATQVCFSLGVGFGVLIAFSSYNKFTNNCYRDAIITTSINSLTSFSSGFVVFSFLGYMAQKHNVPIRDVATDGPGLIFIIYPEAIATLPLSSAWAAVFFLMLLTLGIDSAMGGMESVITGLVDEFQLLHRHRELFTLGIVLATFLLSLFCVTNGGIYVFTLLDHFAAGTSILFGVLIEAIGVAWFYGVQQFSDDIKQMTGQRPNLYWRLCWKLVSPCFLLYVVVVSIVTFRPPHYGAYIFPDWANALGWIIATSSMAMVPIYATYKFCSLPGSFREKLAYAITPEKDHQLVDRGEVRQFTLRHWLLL
- method summary: [^3 H] GBR12935 binding in rat striatal crude membrane
- Design: species or system rat (Wistar male)
- condition notes: 1 nM [^3 H] GBR12935, rat striatal crude membrane, 4° C., 80 minutes
measurement kind: IC50 (nM)
One number for each entry, in nM.

compound	IC50 [nM]
OC(CNc1ccc(Cl)c(Cl)c1)CN1CCN(CCCC(c2ccc(F)cc2)c2ccc(F)cc2)CC1 (centres unmarked)	12
OC(CNc1ccccc1)CN1CCN(CCC(c2ccc(F)cc2)c2ccc(F)cc2)CC1 (centres unmarked)	7
Cl.Cl.O=[N+]([O-])c1ccc(NCC(O)CN2CCN(CCCC(c3ccc(F)cc3)c3ccc(F)cc3)CC2)cc1 (centres unmarked) [Compound 20, dihydrochloride]	8
O=C(O)/C=C\C(=O)O.O=C(O)/C=C\C(=O)O.Oc1ccc(NCC(O)CN2CCN(CCCC(c3ccc(F)cc3)c3ccc(F)cc3)CC2)cc1 (centres unmarked) [Compound 25, dimaleate]	10

Next item in the queue.
input: What value of measured IC50 is listed for OC(CNc1ccccc1)CN1CCN(CCCCC(c2ccc(F)cc2)c2ccc(F)cc2)CC1 (centres unmarked) ?
output: 6
